TESTED TARGET: pooled human IgG (human IgG1, 2, 3 and 4)
MEASURED ATTRIBUTE: Enzyme Activity Endpoint Assay (purified): Fc (ng/µL)
Kindly answer with a numeric value in ng/µL, unit omitted.

The examples below pair each entry with its known result.
| PROTEIN | UNIT ANNOTATION | RECORDED RESULT |
| --- | --- | --- |
| PRT-384 (protein) MVTSVWTKGVTPPTNFTYGEDVLHAPYVANQGWYDITKTFNGKDDLLCGAATAGNMLHWWFDQNKEQIENYLKKHPEKQKINFNGEQMFDVKEAIDTKDSQLDSKLFEYFKEKAFPNLSTKHLGVFPDHVIDMFINGYRLSLTNHGPTPVKRGSKDPRGGIFDAVFTRGDQSKLLTNRHDFKEKTLKEISDLIKQELTEGKALGISHTYANVRINHVINLWGADFDAEGNLEAIYVTDSDSNASIGMKKYFVGVNSNGKVAISAKEIEEDNIGAQVLGLFTLSTGQDIWNQTN | ng/µL | 0 |
| PRT-422 (protein) MTITSVWTKGVTPPTPEDFRYNNEDVLHAPYVANQGWYDITKTFDGKDNLLCGAATAGNMLHWWFDQNKEEIERYLKKHPEKQKIIFNNQELFDVKAAIDTKDSQTNSKLFNYFRDKAFPNLSARQLGVMPDLVLDMFINGYYLNLGKTQSTDVNRPYQDKDKRGGIFDAVFTRGDQTTLLTARHDLKNKGLNEISDLIKQELTEGKALALSHTYANVRINHVINLWGADFDAEGNLIAIYVTDSDANPSIGMKKYFVGVNANGKVAISAKKIEGDNIGAQVLGLFTLSTGQDIWQKLS | ng/µL | 348 |

For the protein PRT-389 (protein) MVTSVWTKGVTPPTNFTYGEDVLHAPYVANQGWYDITKTFNGKDDLLCGAATAGNMLHWWFDQNKEQIENYLKKHPEKQKINFKGEQMFDVKEAIDTKDSQLDSKLFEYFKEKAFPYLSTKHLGVFPDHVIDMFINGYRLSLTNHGPTPVKRGSKDPRGGIFDAVFTRGDQSKLLTNRHDFKEKTLKEISDLIKQELTEGKALGISHTYANVRINHVINLWGADFDAEGNLEAIYVTDSDSNASIGMKKYFVGVNSNGKVAISAKEIEEDNIGAQVLGLFTLSTGQDIWNQTN , what Enzyme Activity Endpoint Assay (purified): Fc is on record?
340

For the protein PRT-564 (protein) MANQEIRYSEATPSHITSVWTKGVTPPTQFIQNEDVLHAPYIANQGWYDITKTFNGKDDLLCGAATAGNMLHWWFDQNKTQIENYLKKHPEKQKINFNGEQMFDVKEAIDTKDSQTDSALFSYFKDKAFPYLSTKHLGVFPDHVIDMFINGYRLSLTNHGPTPVKRQTKDPRGGIFDAVFTRGDQSKLLTSRHDFKEKTLNEISQLIKQELTEGKALGLSHTYANVRINHVINLWGADFNAEGNLEAIYVTDSDSNASIGMKKYYVGVNAAGKVAISAKEIEGDNIGAQVLGLFTLSTGQDIWQQTNLEHHHHHH , what Enzyme Activity Endpoint Assay (purified): Fc is on record?
351
